Molecular target: human β3-AR (Homo sapiens)
Construct: Full length β3 AR clones (402 amino acids) containing the last 6 amino acids of hβ3-AR
Experiment: cAMP accumulation (SPA) in CHO cells transfected with human β3 adrenergic receptor
Details: CHO cells expressing human β3-AR, cAMP, 30 min incubation, 10^−9 M to 10^−5 M
Procedure: The ability of compounds of this invention to treat or inhibit disorders related to insulin resistance or hyperglycemia was confirmed with representative compounds of this invention in the following standard pharmacological test procedures, which measured the binding selectivity to the β1, β2, and β3 adrenergic receptors. Binding to the receptors was measured in Chinese Hamster ovary (CHO) cells that were transfected with adrenergic receptors. […]
Give pEC50 for every item shown.
Expect pEC50 as a plain number equal to -log10 of the molar concentration.

Given the entry "CCCCCCNC(=O)Nc1ccc(-c2nc3cccnc3n2-c2ccc(CCNC[C@H](O)COc3ccc(O)cc3)cc2)cc1" , report its measured pEC50.
7.15

Given the entry "O=C(Nc1cccnc1Nc1ccc(CCNC[C@H](O)COc2ccc(O)cc2)cc1)c1ccccc1" , report its measured pEC50.
7.08

Given the entry Cc1ccn(-c2ccc(-c3nc4cccnc4n3-c3ccc(CCNCC(O)COc4ccc(O)cc4)cc3)c(Cl)c2)n1 (stereo not shown) , report its measured pEC50.
7.27

Given the entry "Oc1ccc(OC[C@@H](O)CNCCc2ccc(-n3c(-c4ccc(C5CCCCC5)cc4)nc4cccnc43)cc2)cc1" , report its measured pEC50.
8.22

Given the entry "CCc1ccc(-c2nc3cccnc3n2-c2ccc(CCNC[C@H](O)COc3ccc(O)cc3)cc2)cc1" , report its measured pEC50.
8.22

Given the entry Nc1cccnc1Nc1ccc(CCNCC(O)COc2ccc(O)cc2)cc1 (stereo in doubt) , report its measured pEC50.
7.14

Given the entry "CCCCCc1nc2cccnc2n1-c1ccc(CCNC[C@H](O)COc2ccc(O)cc2)cc1" , report its measured pEC50.
6.58

---

metric: melting point

Given the entry Oc1ccc(OC[C@@H](O)CNCCc2ccc(-n3cnc4cccnc43)cc2)cc1 (hydrate or solvate) , report its measured melting point.
49 to 52 °C

Given the entry "CCc1ccc(-c2nc3cccnc3n2-c2ccc(CCNC[C@H](O)COc3ccc(O)cc3)cc2)cc1" , report its measured melting point.
75 to 78 °C

Given the entry O=c1[nH]c2cccc(OCC(O)CNCCc3ccc(-n4c(CCC5CCCC5)nc5cccnc54)cc3)c2[nH]1 (centres unmarked) , report its measured melting point.
115 to 117 °C

Given the entry CCCCCCNC(=O)Nc1cccc(-c2nc3cccnc3n2-c2ccc(CCNCC(O)COc3ccc(O)cc3)cc2)c1 (centres unmarked) (hydrate or solvate) , report its measured melting point.
93 to 95 °C

Given the entry Cc1ccn(-c2ccc(-c3nc4cccnc4n3-c3ccc(CCNCC(O)COc4ccc(O)cc4)cc3)c(Cl)c2)n1 (centres unmarked) , report its measured melting point.
87 to 89 °C

Given the entry "Oc1ccc(OC[C@@H](O)CNCCc2ccc(-n3c(CCC4CCCC4)nc4cccnc43)cc2)cc1" , report its measured melting point.
59 to 61 °C

Given the entry O=[N+]([O-])c1cccnc1Nc1ccc(CCNC[C@H](O)COc2ccc(O)cc2)cc1 (hydrate or solvate) , report its measured melting point.
148 to 149 °C

Given the entry "CCCCCCNC(=O)Nc1cccnc1Nc1ccc(CCNC[C@H](O)COc2ccc(O)cc2)cc1" , report its measured melting point.
61 to 64 °C

---

metric: melting point

Given the entry "Oc1ccc(OC[C@@H](O)CNCCc2ccc(-n3c(-c4ccc(C5CCCCC5)cc4)nc4cccnc43)cc2)cc1" , report its measured melting point.
100 to 102 °C

Given the entry "CCCCCc1nc2cccnc2n1-c1ccc(CCNC[C@H](O)COc2ccc(O)cc2)cc1" , report its measured melting point.
50 to 52 °C

Given the entry CCCCCCNC(=O)Nc1ccc(-c2nc3cccnc3n2-c2ccc(CCNC[C@H](O)COc3ccc(O)cc3)cc2)cc1 (hydrate or solvate) , report its measured melting point.
110 to 116 °C

Given the entry CCCCCCNC(=O)Nc1ccc(CCc2nc3cccnc3n2-c2ccc(CCNC[C@H](O)COc3ccc(O)cc3)cc2)cc1 (hydrate or solvate) , report its measured melting point.
90 to 92 °C

Given the entry Nc1cccnc1Nc1ccc(CCNC[C@H](O)COc2ccc(O)cc2)cc1 (hydrate or solvate) , report its measured melting point.
63 to 65 °C

Given the entry "O=C(Nc1cccnc1Nc1ccc(CCNC[C@H](O)COc2ccc(O)cc2)cc1)c1ccccc1" , report its measured melting point.
97 to 99 °C

Given the entry "C=C(C)n1c(=O)n(-c2ccc(CCNC[C@H](O)COc3ccc(O)cc3)cc2)c2ncccc21" , report its measured melting point.
62 to 64 °C

---

Give IA(β3) for every item shown.
molecular target: human β3-AR (Homo sapiens); construct: Full length β3 AR clones (402 amino acids) containing the last 6 amino acids of hβ3-AR; expressed in transfected cells; host or cells: CHO cells; experiment: cAMP accumulation (SPA) in CHO cells transfected with human β3 adrenergic receptor; format: cell-based; details: maximal response; IA=% activity compound/% activity isoproterenol at 10^−5 M
Form rule: numeric answer, no unit written next to it.

Given the entry Nc1cccnc1Nc1ccc(CCNCC(O)COc2ccc(O)cc2)cc1 (stereo in doubt) , report its measured IA(β3).
1.01

Given the entry "Nc1cccnc1Oc1ccc(CCNC[C@H](O)COc2ccc(O)cc2)cc1" , report its measured IA(β3).
1.12

Given the entry "Oc1ccc(OC[C@@H](O)CNCCc2ccc(-n3cnc4cccnc43)cc2)cc1" , report its measured IA(β3).
0.76

Given the entry Cc1ccn(-c2ccc(-c3nc4cccnc4n3-c3ccc(CCNCC(O)COc4ccc(O)cc4)cc3)c(Cl)c2)n1 (centres unmarked) , report its measured IA(β3).
0.086

Given the entry "C=C(C)n1c(=O)n(-c2ccc(CCNC[C@H](O)COc3ccc(O)cc3)cc2)c2ncccc21" , report its measured IA(β3).
1.12

---

target: human β3-AR (Homo sapiens); construct: Full length β3 AR clones (402 amino acids) containing the last 6 amino acids of hβ3-AR; assay: cAMP accumulation (SPA) in CHO cells transfected with human β3 adrenergic receptor; conditions: CHO cells expressing human β3-AR, cAMP, 30 min incubation, 10^−9 M to 10^−5 M
metric: pEC50
Expect pEC50 as a plain number equal to -log10 of the molar concentration.

Given the entry "O=[N+]([O-])c1cccnc1Nc1ccc(CCNC[C@H](O)COc2ccc(O)cc2)cc1" , report its measured pEC50.
6.49

Given the entry "Oc1ccc(OC[C@@H](O)CNCCc2ccc(-n3cnc4cccnc43)cc2)cc1" , report its measured pEC50.
7.02

Given the entry "CCCCCc1nc2cccnc2n1-c1ccc(CCNC[C@H](O)COc2cccc3[nH]c(=O)[nH]c23)cc1" , report its measured pEC50.
7.34

Given the entry "C=C(C)n1c(=O)n(-c2ccc(CCNC[C@H](O)COc3ccc(O)cc3)cc2)c2ncccc21" , report its measured pEC50.
7.24

Given the entry "Oc1ccc(OC[C@@H](O)CNCCc2ccc(-n3c(CCC4CCCC4)nc4cccnc43)cc2)cc1" , report its measured pEC50.
8.00

Given the entry "Nc1cccnc1Oc1ccc(CCNC[C@H](O)COc2ccc(O)cc2)cc1" , report its measured pEC50.
7.70

---

Molecular target: human β3-AR (Homo sapiens, UniProt P13945)
Construct: Full length β3 AR clones (402 amino acids) containing the last 6 amino acids of hβ3-AR; expressed in transfected cells; host or cells: CHO cells
Sequence (P13945 whole entry): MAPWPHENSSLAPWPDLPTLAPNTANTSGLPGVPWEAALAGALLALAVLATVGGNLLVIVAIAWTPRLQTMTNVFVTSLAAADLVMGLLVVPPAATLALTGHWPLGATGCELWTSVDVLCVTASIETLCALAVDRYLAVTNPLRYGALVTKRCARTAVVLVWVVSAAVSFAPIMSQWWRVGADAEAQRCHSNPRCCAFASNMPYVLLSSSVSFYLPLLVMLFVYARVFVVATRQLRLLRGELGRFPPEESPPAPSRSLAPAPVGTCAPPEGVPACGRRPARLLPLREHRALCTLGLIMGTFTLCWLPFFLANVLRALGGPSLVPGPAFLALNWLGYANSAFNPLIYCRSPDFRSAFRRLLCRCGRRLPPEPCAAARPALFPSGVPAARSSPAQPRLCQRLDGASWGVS
Assay: cAMP accumulation (SPA) in CHO cells transfected with human β3 adrenergic receptor
Type: cell-based
Details: maximal response; IA=% activity compound/% activity isoproterenol at 10^−5 M
Procedure: The ability of compounds of this invention to treat or inhibit disorders related to insulin resistance or hyperglycemia was confirmed with representative compounds of this invention in the following standard pharmacological test procedures, which measured the binding selectivity to the β1, β2, and β3 adrenergic receptors. Binding to the receptors was measured in Chinese Hamster ovary (CHO) cells that were transfected with adrenergic receptors. […]
metric: IA(β3)
Form rule: numeric answer, no unit written next to it.

Given the entry CCCCCc1nc2cccnc2n1-c1ccc(CCNC[C@H](O)COc2ccc(O)cc2)cc1 [Example 9] , report its measured IA(β3).
0.74

Given the entry Oc1ccc(OC[C@@H](O)CNCCc2ccc(-n3c(-c4ccc(C5CCCCC5)cc4)nc4cccnc43)cc2)cc1 [Example 10] , report its measured IA(β3).
0.96

Given the entry CCCCCCNC(=O)Nc1ccc(-c2nc3cccnc3n2-c2ccc(CCNC[C@H](O)COc3ccc(O)cc3)cc2)cc1 [Example 15] , report its measured IA(β3).
1.05

Given the entry O=C(Nc1cccnc1Nc1ccc(CCNC[C@H](O)COc2ccc(O)cc2)cc1)c1ccccc1 [Example 6] , report its measured IA(β3).
0.88

Given the entry CCCCCc1nc2cccnc2n1-c1ccc(CCNC[C@H](O)COc2cccc3[nH]c(=O)[nH]c23)cc1 [Example 13] , report its measured IA(β3).
0.087

Given the entry O=[N+]([O-])c1cccnc1Nc1ccc(CCNC[C@H](O)COc2ccc(O)cc2)cc1 [Example 1] , report its measured IA(β3).
0.65

Given the entry Oc1ccc(OC[C@@H](O)CNCCc2ccc(-n3c(CCC4CCCC4)nc4cccnc43)cc2)cc1 [Example 11] , report its measured IA(β3).
0.86

Given the entry CCc1ccc(-c2nc3cccnc3n2-c2ccc(CCNC[C@H](O)COc3ccc(O)cc3)cc2)cc1 [Example 8] , report its measured IA(β3).
1.03
